test system: noninfected CEM-SS cells; assay: Toxic effect on noninfected cells (formazan formation), CEM-SS; details: at least 50% inhibition of formazan formation, 5 days
CD50 listing for selected compounds.
State just the number; it will be interpreted in M.

[
  {
    "compound": "Nc1ccn([C@H]2CC[C@@H](CO)O2)c(=O)n1 [DDC, reference compound]",
    "CD50 / M": "6e-05"
  },
  {
    "compound": "Nc1ccn([C@@H]2CC[C@H](CO)O2)c(=O)n1 [Compound 21a, 2′,3′-dideoxy-β-L-cytidine]",
    "CD50 / M": "8.3e-05"
  }
]

We next turn to a different compound, shown below.
Query :: State its CD50: Nc1nc(=O)n([C@@H]2CC[C@H](CO)O2)cc1F [Compound 21b, 2′,3′-dideoxy-β-L-5-fluorocytidine]
Result :: 9e-05
